Provenance of the data: PubChem BioAssay (NCI)

Test system: A549 NSCLC
protocol-summary: NCI tumour cell line growth inhibition, 48 h
property: TGI

Recorded TGI, per entry:
O=C(O)CN1CCN2CCCCCCCCN(CC1)CCN(CC(=O)O)CC2 | > 100 µM
Cn1cnc(SC2=CC(=O)C=C3S[C@H]4C[C@@]23c2c(c(O)c3c5c2=NCCC=5C=N3)N4)c1CC(N)C(=O)O (stereo not given in full) | 30.2 µM
Cc1cn(CCCCOC(=O)NC(CCCN=C(N)N)C(=O)O)c(=O)[nH]c1=O (stereo not given) | > 100 µM
C[C@H](CCC(=O)O)[C@H]1CC[C@H]2[C@@H]3[C@H](O)[C@H](O)[C@@H]4C[C@H](O)CC[C@]4(C)[C@H]3CC[C@]12C | > 100 µM

Query :: Lookup: TGI / A549 NSCLC / "Oc1c(CN2CCCCC2)ccc2cccnc12"
Result :: 28.1 µM

Query :: Look up TGI with A549 NSCLC for this molecule: "Oc1ccc(Br)cc1C=NC1CCCCC1"
Result :: > 100 µM

Query :: Look up TGI with A549 NSCLC for this molecule: "COc1ccc(/C=C/c2cc(OC)c(OC)c(OC)c2)cc1OC"
Result :: > 100 µM

###

Test system: HOP-62 NSCLC
protocol-summary: NCI tumour cell line growth inhibition, 48 h; in the data active means GI50 below about 0.43 µM; inactive means the rest
Could you please pick one outcome from this set? active, inactive

Solved cases below.
CCCCCCCC(=O)Nc1nc2[nH]c(CN3CCN(Cc4cccc(I)c4)CC3)c(CN3CCN(Cc4cccc(I)c4)CC3)c2c(=O)[nH]1 | inactive
COc1cc(OCCCN2CCCC2)ccc1Nc1ncc(Cl)c(Nc2ccccc2P(C)(C)=O)n1 | inactive
C[C@]1(c2nc3c(C(N)=O)cccc3[nH]2)CCCN1 | inactive
Oc1c(CN2CCCCC2)ccc2cccnc12 | inactive
C=C[C@@H]1CCC/C=C/[C@@H]2C[C@H](O)C[C@H]2[C@H](O)/C=C/C(=O)O1 | inactive
COc1cc(/C=C/C(=O)c2ccccc2O)ccc1OCCCOc1cc2c(cc1OC)C(=O)N1CCC[C@H]1C=N2 | active
CC[C@H](C)[C@H](NC(=O)c1ncccn1)C(=O)N(C)[C@H](C[C@@H](OC(C)=O)c1nc(C(=O)N[C@@H](Cc2ccccc2)C[C@H](C)C(=O)OC)cs1)C(C)C | inactive
COc1cccc(C2SC(C)C(=O)N2NC(=O)C(O)c2ccccc2)c1 (centres undefined) | inactive
Cc1cc2[nH]c(=O)c3c4ncccc4cn3c2cc1C | inactive
COc1ccc(-c2oc3ncnc(N)c3c2-c2ccc(NC(=O)Nc3cc(C(F)(F)F)ccc3F)cc2)cc1 | inactive

Query :: Check the results log: what was the call for CCC(CO)Nc1nc(NCc2ccccc2)c2n[nH]c(C(C)C)c2n1 (centres undefined) ?
Result :: inactive

Query :: Outcome logged for "CCOc1ccc(Nc2ccnc3cc(Cl)ccc23)cc1" in this assay:
Result :: inactive

Query :: Could you kindly confirm the outcome this assay logged for "O=C(N/N=C\c1ccc(N(CCCl)CCCl)cc1)c1cccnc1" ?
Result :: inactive

###

System: SF-268 CNS
protocol-summary: NCI tumour cell line growth inhibition, 48 h
The entries below come with measured TGI values attached.
Response body: numeric value in µM, unit text excluded.

Worked examples follow.
COc1ccccc1N1C(=O)CSC1c1cccc(Oc2ccccc2)c1 (stereo not given) | 36.3
NC1=Nc2ccccc2Sc2nccn21 | 88.4

Pending molecule:
Query :: Endpoint output: TGI of "COc1ccc2nc(N/N=C/c3ccc(C)s3)cc(C)c2c1" . Value?
Result :: 54.7

###

Tested on: PC-3 prostate
protocol-summary: NCI tumour cell line growth inhibition, 48 h
property: TGI

// solved cases for TGI follow
CN1/C(=C\N=O)C(C)(C)N(O)C1(C)C | > 100 µM
O=C1NN(C(=O)c2ccccc2)C(c2ccc(Cl)c(Cl)c2)=C/C1=C\c1ccccc1[N+](=O)[O-] | > 6.75 µM
O=C1NCN(c2ccccc2)C12CCN(CCCN1CCN(CCOC(c3ccccc3)c3ccccc3)CC1)CC2 | 7.69 µM
COc1ccc(CC2Cc3ccccc3CC(=O)N2)cc1OC (centres undefined) | > 100 µM

Query :: Recorded TGI of "Oc1c(CN2CCCCC2)ccc2cccnc12" , please.
Result :: > 100 µM

Query :: Quick check: TGI of COc1cc2c(c(OC)c1OC)-c1ccc(OC)c(=O)cc1C(NC(=O)CCCCCNc1ccc(N=[N+]=[N-])cc1[N+](=O)[O-])CC2 (centres undefined) ?
Result :: < 0.01 µM

Query :: Which TGI is reported for this molecule? "C=C(C)[C@@H]1C/C=C(/COC(C)=O)CC[C@H]2O[C@@]2(C)CC/C=C(\C)CC1"
Result :: > 100 µM

Query :: # get_value(readout='TGI', item= "CCCCCCCC(=O)Nc1nc2[nH]c(CN3CCN(Cc4cccc(I)c4)CC3)c(CN3CCN(Cc4cccc(I)c4)CC3)c2c(=O)[nH]1" )
Result :: 1.63 µM

Query :: Entry "O=c1cc(-c2ccccc2)oc2c(O)c(O)ccc12" has what TGI?
Result :: > 100 µM

Query :: Sample C1=C2C3=[N+](CCCC3)CC2Cc2sccc21 (centres undefined) — what was its TGI?
Result :: > 100 µM

###

Tested on: UACC-62 melanoma
protocol-summary: NCI tumour cell line growth inhibition, 48 h
Parameter: TGI. Scope: all listed entries.
Quick reminder: number only, in µM, skip the unit.

O=C1/C(=C/c2ccc(Cl)cc2)N=C(c2ccccc2)N1c1cc(C(F)(F)F)ccc1Cl | 44.9
Cc1ccc(S(=O)(=O)NC(Cc2ccccc2)C(=O)CCl)cc1 (stereo unspecified) | 26.4
C#Cc1cccc(Nc2nc(C)nc3cc(NC(=O)CCl)ccc23)c1 | 3.81
COc1ccc2c(c1)C(=O)/C(=C/c1ccc(O)cc1)O2 | 30.5
COc1ccc2nc(N/N=C/c3ccc(C)s3)cc(C)c2c1 | 35.4

Would you kindly look at the next entry?
Query :: So what TGI did "Cc1ccc2c(ccc3ncc(CNc4ccc(NS(C)(=O)=O)cc4)c32)[nH]1" get with UACC-62 melanoma?
Result :: 34.2

###

Tested on: EKVX NSCLC
protocol-summary: NCI tumour cell line growth inhibition, 48 h
property: TGI

CSc1nc2c(nc(N)n2C2OC(CO)C(O)C(O)C2O)c(=O)[nH]1 (stereo unspecified) | > 100 µM
O=C1CC=C2C3CC4N(CCC45c4ccccc4N1C25)C/C3=C\CO (stereo unspecified) | > 100 µM
COc1ccc(-c2oc3ncnc(N)c3c2-c2ccc(NC(=O)Nc3cc(C(F)(F)F)ccc3F)cc2)cc1 | 9.74 µM
CC(C)(C)OC(=O)NC(Cc1ccccc1)C(=S)N1CCCC1 (stereo unspecified) | > 100 µM

Query :: Which value of TGI has been reported for "Oc1cccc2cccnc12" in the records?
Result :: > 100 µM

Query :: State the recorded TGI for this entry: "O=c1cc(-c2ccccc2)oc2c(O)c(O)ccc12"
Result :: > 100 µM

###

Test system: SK-OV-3 ovarian
protocol-summary: NCI tumour cell line growth inhibition, 48 h
Below: a set of entries, each annotated with reported TGI.

Worked examples, 10 compounds total:
CC(=O)CCc1ccc(Oc2c3ccccc3nc3occc23)cc1 | 41.4 µM
COc1ccc2cc(C(=O)N3CCC([C@@H](C)C(=O)NCc4ccc5c(c4)OCO5)CC3)[nH]c2c1 | > 100 µM
Cn1nc(-c2ccccc2)c2c(/C=C/c3ccc(F)cc3)onc2c1=O | > 100 µM
COc1cccc(/C=C2\N=C(Cl)OC2=O)c1O | > 100 µM
O=C(O)CN1CCN2CCCCCCCCN(CC1)CCN(CC(=O)O)CC2 | > 100 µM
CSc1nc2c(nc(N)n2C2OC(CO)C(O)C(O)C2O)c(=O)[nH]1 (stereo unspecified) | > 100 µM
Oc1c(CN2CCCCC2)ccc2cccnc12 | 25 µM
CC(=O)N(N=O)c1ccc(N(N=O)C(C)=O)cc1 | > 100 µM
COc1nc2c(c(=O)[nH]1)N=C(c1ccccc1)CC(c1ccccc1)N2 (stereo unspecified) | > 100 µM
Cc1ccc(N2C=Nn3c(nc4sc5c(c4c3=O)CCCC5)C2)cc1 | > 100 µM

Query :: Notebook entry, SK-OV-3 ovarian assay: TGI of COc1c(O)cc2c(c1O)C(=O)C(Cc1ccc(O)cc1)CO2 (stereo unspecified) = ?
Result :: > 100 µM

Query :: Form field: TGI recorded for "O=C(N/N=C/c1ccc([N+](=O)[O-])cc1)c1ccccc1Nc1ccnc(C(F)(F)F)c1" with SK-OV-3 ovarian (enter value)
Result :: 81.4 µM

Query :: GET /values?readout=TGI&system=SK-OV-3 ovarian&item= "C[C@]1(c2nc3c(C(N)=O)cccc3[nH]2)CCCN1"
Result :: > 100 µM

Query :: Lab note: need TGI with SK-OV-3 ovarian for entry "Oc1cccc2cccnc12" , please look it up.
Result :: > 100 µM

Query :: Lab request: please report TGI under test system SK-OV-3 ovarian for "COc1ccc(-c2c(NC(=O)Nc3ccc(Cl)c(C(F)(F)F)c3)cnn2-c2ccc(S(N)(=O)=O)cc2)cc1"
Result :: 14 µM
